methodDescription: Trypan blue staining, total cell number and viability of treated PC-3 cells
Type: cell-based, human
cond: human, MS-275 0.5 μM 48 hours, Resveratrol 50 μM 48 hours
assayReadout: viability at 48 h

According to the records, this molecule Oc1ccc(C=Cc2cc(O)cc(O)c2)cc1 displays viability at 48 h of > 94%
